src = patent US20040253247A1

This section presents binders with their documented IC50 values.
# system: T1, rat albumin (rat), P02770
# T1 chain: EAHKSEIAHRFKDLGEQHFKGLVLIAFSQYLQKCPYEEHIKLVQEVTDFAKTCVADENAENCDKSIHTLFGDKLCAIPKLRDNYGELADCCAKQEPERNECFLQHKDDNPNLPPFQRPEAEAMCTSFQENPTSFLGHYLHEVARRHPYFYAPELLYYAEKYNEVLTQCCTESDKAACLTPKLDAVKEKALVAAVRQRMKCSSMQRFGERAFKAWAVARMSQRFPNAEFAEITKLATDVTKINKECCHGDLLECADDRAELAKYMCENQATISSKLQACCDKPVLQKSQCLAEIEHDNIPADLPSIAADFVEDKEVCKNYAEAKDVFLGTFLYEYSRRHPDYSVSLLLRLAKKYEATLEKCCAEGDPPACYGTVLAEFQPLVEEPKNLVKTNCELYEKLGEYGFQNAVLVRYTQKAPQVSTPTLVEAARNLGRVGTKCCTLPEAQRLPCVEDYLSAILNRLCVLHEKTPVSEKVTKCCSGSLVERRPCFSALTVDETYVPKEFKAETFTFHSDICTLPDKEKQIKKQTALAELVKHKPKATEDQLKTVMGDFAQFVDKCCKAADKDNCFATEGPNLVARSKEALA
# assay-remarks: SA08b binding assay: competition with biotinylated SA08b for immobilized albumin
Write down the numeric answer in nM and omit the unit.

binder: RLMEDICLARWGCLWEDD (modifications not checked) [SA13]
IC50 (nM): 2480

Consider the record given below.
Find the recorded IC50 belonging to RLMEDICLPRWGCLWEDD (modifications not checked) [SA10] and report it.
77
